For reference, IC50 measured on UniProt Q2M2I8:
Metric name: IC50 (nM)

Reference set, count: 6
>>> obs_value("CC(C)C[C@@](C)(N)COc1cnc(-c2ccnc(C(F)F)c2)cc1C(F)F")
17
>>> obs_value("CC(C)C[C@](C)(N)COc1ccc(-c2ccnc3cc(Cl)ccc23)cc1C(F)(F)F")
0.46
>>> obs_value("Cc1cc(-c2ccc(OC[C@@](C)(N)CC(C)C)c(C)c2)ccn1")
2.6
>>> obs_value("CC(C)C[C@](C)(N)COc1ccc(-c2ncnc3ccccc23)cc1C(F)(F)F")
0.86
>>> obs_value("COC(=O)Nc1cc(-c2cc(C(F)(F)F)c(OC[C@@](C)(N)CC(C)C)cn2)ccn1")
0.19
>>> obs_value("Cc1nc(-c2ccnc3cc(F)ccc23)ccc1OC[C@@](C)(N)CC(C)C")
27

(1) COC(=O)Nc1cc(-c2cc(C(F)F)c(OC[C@@](C)(O)CC(C)C)cn2)ccn1
(2) CC(=O)Nc1cc(-c2cc(F)c(OC[C@@H](N)CC(C)C)c(C(F)(F)F)c2)ccn1
(3) COC(=O)Nc1cc(-c2ccc(OC[C@@](C)(N)CC(C)C)c(F)c2)ccn1
Problem: Rank by IC50 (largest to smallest). Show the ranking through the labels, in the order asked for.
Result: 1, 2, 3

(1) CC(C)C[C@](C)(N)COc1cnc(-c2ccnc3ccccc23)cc1C(F)(F)F
(2) CC(C)C[C@](C)(N)COc1ncc(-c2ccnc3ccccc23)cc1C(F)(F)F
Problem: Hi there! Just curious which has the higher IC50 between 1 and 2 . // return label of chosen record
Result: 2

(I) CC(C)C[C@](C)(N)COc1ccc(-c2ccnc3ccncc23)cc1C#N
(II) Cc1cc(-c2ccc(OC[C@@](C)(N)CC(C)C)c(C(F)F)n2)cnn1
Problem: Hi there! Just curious which has the higher IC50 between I and II . // return label of chosen record
Result: II
(II: 1100 nM, I: 1.2 nM)

(I) COC(=O)Nc1cc(-c2ccc(OC[C@@](C)(N)CC(C)C)c(CN(C)C)c2)ccn1
(II) CC(C)C[C@](C)(N)COc1ccc(-c2ccnc3ccccc23)nc1Cl
Problem: Hi there! Just curious which has the higher IC50 between I and II . // return label of chosen record
Result: I
(I: 970 nM, II: 1.8 nM)
